Molecular target: wild-type Androgen Receptor (AR-wt) (Homo sapiens, UniProt P10275)
Construct: expressed in transfected cells; host or cells: LNCaP (LNCaP AR (cs))
Sequence (P10275 1-920): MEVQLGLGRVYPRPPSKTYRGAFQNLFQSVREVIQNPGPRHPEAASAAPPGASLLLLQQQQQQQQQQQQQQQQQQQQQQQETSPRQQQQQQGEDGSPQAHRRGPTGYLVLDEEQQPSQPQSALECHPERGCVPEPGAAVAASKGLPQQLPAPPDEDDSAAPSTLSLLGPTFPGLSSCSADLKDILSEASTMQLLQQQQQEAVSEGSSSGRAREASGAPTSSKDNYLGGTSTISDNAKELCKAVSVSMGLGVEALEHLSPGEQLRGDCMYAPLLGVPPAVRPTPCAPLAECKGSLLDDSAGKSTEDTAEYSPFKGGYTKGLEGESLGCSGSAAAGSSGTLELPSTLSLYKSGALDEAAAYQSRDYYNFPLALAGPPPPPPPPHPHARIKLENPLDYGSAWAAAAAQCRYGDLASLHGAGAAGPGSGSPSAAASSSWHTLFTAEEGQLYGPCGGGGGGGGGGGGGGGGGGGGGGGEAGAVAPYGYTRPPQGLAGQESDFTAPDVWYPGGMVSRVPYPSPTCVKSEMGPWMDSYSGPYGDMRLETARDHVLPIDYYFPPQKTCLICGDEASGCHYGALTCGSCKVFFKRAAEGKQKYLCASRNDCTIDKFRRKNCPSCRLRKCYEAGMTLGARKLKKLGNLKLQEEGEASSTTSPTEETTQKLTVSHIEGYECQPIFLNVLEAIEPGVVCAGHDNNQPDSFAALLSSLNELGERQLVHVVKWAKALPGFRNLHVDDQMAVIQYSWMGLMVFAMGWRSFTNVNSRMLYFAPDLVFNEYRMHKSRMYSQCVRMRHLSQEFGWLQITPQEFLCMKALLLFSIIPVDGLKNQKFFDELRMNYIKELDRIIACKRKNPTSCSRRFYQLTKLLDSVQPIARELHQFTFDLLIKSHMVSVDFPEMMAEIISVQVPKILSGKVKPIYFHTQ
Test: LNCaP-AR-wt ANT reporter assay (ARE firefly luciferase, antagonist mode)
Assay type: cell-based
Settings: maximum % inhibition of R1881 control response over tested concentration range; read-out: LNCaP-AR-wt ANT MAX % Inh
READOUT KIND: Emax (%)
State the answer as a number, implicitly in %.

The cases that follow already have their Emax on record.
compound="CCN1CCC(Oc2ccc(N3C(=S)N(c4cnc(C#N)c(C)c4)C(=O)C34CCC4)cc2)CC1 [Cpd 61]" readout_kind=Emax numeric_value=100
compound="COCCCNC(=O)c1ccc(N2C(=S)N(c3cnc(C#N)c(C(F)(F)F)c3)C(=O)C23CCC3)cc1F [Cpd 24]" readout_kind=Emax numeric_value=100
compound="Cc1cc(N2C(=O)C3(CCC3)N(c3ccc(C(=O)Nc4cncc(F)c4)c(F)c3)C2=S)cnc1C#N [Cpd 113]" readout_kind=Emax numeric_value=97.4
compound="N#Cc1ncc(N2C(=O)C3(CCC3)N(c3ccc(C(=O)NCCc4ccccn4)c(F)c3)C2=S)cc1C(F)(F)F [Cpd 15]" readout_kind=Emax numeric_value=103
compound="N#Cc1ncc(N2C(=O)C3(CCC3)N(c3ccc(C(=O)NCCN4CCOCC4)c(F)c3)C2=S)cc1C(F)(F)F [Cpd 22]" readout_kind=Emax numeric_value=99.5

Now for the compound whose Emax we want.
Prompt: # get_value(readout='Emax', item= N#Cc1ncc(N2C(=O)C3(CCC3)N(c3ccc(C(=O)NCc4ccco4)c(F)c3)C2=S)cc1C(F)(F)F [Cpd 76] )
Completion: 97.8

Numbers sourced from patent US20180008587A1.
